The values you see were collected from ChEMBL document CHEMBL1154760.

# Measured target: Autotaxin (Homo sapiens)
# Run description: Competitive inhibition of human autotaxin at free state isolated from MDA-MB-231 cells assessed as blockade of FS3 substrate hydrolysis by FRET assay
# Assay type: cell-based
Readout type: Ki (µM)
Give bare numbers, in µM.

Study these solved cases before continuing.
CCn1cc(C(=O)O)c(=O)c2cnc(N3CCN(C(=S)Nc4ccc5nsnc5c4)CC3)nc21 : 7.1
CCn1cc(C(=O)O)c(=O)c2cnc(N3CCN(C(=S)Nc4cc(C(F)(F)F)cc(C(F)(F)F)c4)CC3)nc21 : 4
CCn1cc(C(=O)O)c(=O)c2cnc(N3CCN(C(=S)Nc4cccc(C)c4)CC3)nc21 : 4.5
CCn1cc(C(=O)O)c(=O)c2cnc(N3CCN(C(=S)Nc4ccc(Cl)cc4)CC3)nc21 : 5.7
CCn1cc(C(=O)O)c(=O)c2cnc(N3CCN(C(=S)Nc4cccc(C(F)(F)F)c4)CC3)nc21 : 0.7

Please fill in: Ki reported for `CCn1cc(C(=O)O)c(=O)c2cnc(N3CCN(C(=S)Nc4cc(C)cc(C)c4)CC3)nc21` = 4.2

---

# Measured target: Glycerophosphocholine cholinephosphodiesterase ENPP6 (Homo sapiens)
# Sequence (whole entry): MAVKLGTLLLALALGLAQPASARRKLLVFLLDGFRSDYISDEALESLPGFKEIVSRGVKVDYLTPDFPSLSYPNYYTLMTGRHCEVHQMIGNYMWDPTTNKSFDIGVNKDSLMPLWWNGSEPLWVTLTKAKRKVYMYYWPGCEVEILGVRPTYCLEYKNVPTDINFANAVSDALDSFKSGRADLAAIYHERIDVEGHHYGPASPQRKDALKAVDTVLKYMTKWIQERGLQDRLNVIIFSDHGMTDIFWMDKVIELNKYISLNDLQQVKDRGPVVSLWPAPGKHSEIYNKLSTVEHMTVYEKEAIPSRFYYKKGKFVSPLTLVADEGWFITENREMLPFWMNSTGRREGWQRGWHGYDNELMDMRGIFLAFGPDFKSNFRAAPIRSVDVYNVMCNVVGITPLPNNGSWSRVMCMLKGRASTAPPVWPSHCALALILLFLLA
# Run description: Inhibition of NPP6 expressed in HEK293 cells assessed as para-nitrophenylphosphoryl choline hydrolysis
# Assay type: cell-based
Active and inactive are the calls of the source. No cut-off for these calls is given here.
Readout type: Activity

CCn1cc(C(=O)O)c(=O)c2cnc(N3CCN(C(=S)Nc4ccc(C(F)(F)F)cc4)CC3)nc21 : inactive
CCn1cc(C(=O)O)c(=O)c2cnc(N3CCN(C(=S)Nc4ccc(I)cc4)CC3)nc21 : inactive
CCn1cc(C(=O)O)c(=O)c2cnc(N3CCN(C(=S)Nc4cccc(C(F)(F)F)c4)CC3)nc21 : inactive
CCn1cc(C(=O)O)c(=O)c2cnc(N3CCN(C(=S)Nc4ccc(F)cc4)CC3)nc21 : inactive
CCn1cc(C(=O)O)c(=O)c2cnc(N3CCN(C(=S)Nc4cc(Cl)ccc4Cl)CC3)nc21 : inactive

The record that follows has no Activity shown yet.
Please fill in: Activity reported for `CCn1cc(C(=O)O)c(=O)c2cnc(N3CCN(C(=S)Nc4ccc(C)cc4)CC3)nc21` = inactive
